- study_system: human 5-HT6 receptor (Homo sapiens)
- Sequence (P50406 whole entry): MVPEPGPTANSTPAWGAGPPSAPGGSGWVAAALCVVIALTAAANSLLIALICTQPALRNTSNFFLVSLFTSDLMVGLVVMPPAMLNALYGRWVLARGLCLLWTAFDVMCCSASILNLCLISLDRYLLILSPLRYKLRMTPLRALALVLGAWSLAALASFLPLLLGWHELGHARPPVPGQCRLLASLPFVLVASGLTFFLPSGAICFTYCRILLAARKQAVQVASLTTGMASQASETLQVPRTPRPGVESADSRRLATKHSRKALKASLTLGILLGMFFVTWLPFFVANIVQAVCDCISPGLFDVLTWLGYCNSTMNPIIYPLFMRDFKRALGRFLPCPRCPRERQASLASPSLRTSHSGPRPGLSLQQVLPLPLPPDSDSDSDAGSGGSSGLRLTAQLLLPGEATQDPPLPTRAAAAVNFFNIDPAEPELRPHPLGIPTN
- assay_text: 5-HT6 intrinsic activity assay (inhibition of 5-HT induced increase in cAMP)
- experimental_setup: read-out: Antagonist potency at the h5-HT6 receptor, IC50,corr
parameter: IC50 (nM)

1 = O=S(=O)(c1ccccc1)n1cc2c3c(cccc31)CN(Cc1ncc[nH]1)C2 [Example 3, bis(trifluoroacetate)]
2 = O=S(=O)(c1ccccc1)n1cc2c3c(cccc31)CNCC2
Smaller IC50 value? Options are 1 and 2 Mark your answer with the label of the selected entry.
2

The origin of these recorded values is patent US8138333B2.
